Origin of values: the supplement of paper PMC10126150

Catalogue of switch fluorescence ratio readings, one per entry.
system: ATP; test: switch fluorescence ratio, 500 uM ATP over buffer (Cy3 cluster intensity, sum of 5 cycles each) (fold (ratio)); higher = stronger signal-on switching upon ATP binding; sequences stand for … in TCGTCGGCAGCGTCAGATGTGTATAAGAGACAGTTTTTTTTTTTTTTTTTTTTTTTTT…TC; conditions: aptamer strand: ATP DNA aptamer (quencher-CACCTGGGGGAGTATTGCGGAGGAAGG + anchor), 100 nM annealed; ATP concentration: 500 uM;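 also: ATP exposure 15 min at 22 °C before imaging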
Format: numeric value only, no unit, no commentary.

Guide cases for switch fluorescence ratio, answers given:
TATTTTTGGA : 0.981
TTCATATGCG : 0.995
GAGTAGGAGC : 1.02
TCTGAAATAA : 1.08
CATCGGCCGC : 1.02

Task: Consider the sequence shown here: `GTTCGACCCG` What is its recorded switch fluorescence ratio?
Output: 1.02

Task: Consider the sequence shown here: `AGAAATAGGA` What is its recorded switch fluorescence ratio?
Output: 1.01

Task: Consider the sequence shown here: `AGTTGGATGC` What is its recorded switch fluorescence ratio?
Output: 0.965

Task: Consider the sequence shown here: `TGGGGTGCAG` What is its recorded switch fluorescence ratio?
Output: 1.03

Task: Consider the sequence shown here: `AATTTACATG` What is its recorded switch fluorescence ratio?
Output: 1.02
